Test: Unidirectional (A→B) permeability across Caco-2 cell monolayers in presence and absence of excipients
Conditions: human, Caco-2, Apparent permeability coefficient (Papp), HPMC 2.0 mg/ml (control set b), mean ± SEM, n = 4

COMPOUND	UNIT_SYMBOL	Papp A→B
CC(C)(C)NCC(O)COc1cccc2c1CC(O)C(O)C2 (stereo not shown)	×10⁻⁶ cm/s	0.11

----------
Assay: in vivo
Details: Sprague-Dawley, rat, pH 6.8, Effective permeability coefficient (Peff), rat jejunum, SLS 0.04 mg/ml; mean ± SEM, n = 4
REPORTED_PROPERTY: Papp at 90 min (×10⁻⁶ cm/s)

COMPOUND	REPORTED_PROPERTY	MEAS_VALUE
Cc1cc(=O)n(-c2ccccc2)n1C [Antipyrine, antipyrine]	Papp at 90 min	108

----------
Test: in vivo
Settings: Sprague-Dawley, rat, pH 6.8, Effective permeability coefficient (Peff), rat jejunum, SLS […]; mean ± SEM, n = 4

COMPOUND	Papp at 90 min [×10⁻⁶ cm/s]
Cc1cc(=O)n(-c2ccccc2)n1C [Antipyrine, antipyrine]	157

----------
Assay: in vitro
Conditions: Caco-2

COMPOUND	Papp A→B, ×10⁻⁶ cm/s
CC(C)(C)NCC(O)COc1cccc2c1CC(O)C(O)C2 (centres unmarked)	33
Nc1nc2c(ncn2COCCO)c(=O)[nH]1	29.8

----------
Experiment: Unidirectional (A→B) permeability across Caco-2 cell monolayers in presence and absence of excipients
Details: human, Caco-2, Apparent permeability coefficient (Papp), SLS 0.01 mg/ml (control set a), mean ± SEM, n = 4

MOLECULE	Papp A→B (nm/s)
CC(C)(C)NCC(O)COc1cccc2c1CC(O)C(O)C2 (stereo not shown) [Nadolol, nadolol]	2.3

----------
Assay: Bidirectional permeability across Caco-2 cell monolayers (no excipients)
Details: human, Caco-2

COMPOUND	UNIT_SYMBOL	Papp B→A
CC(C)(C)NCC(O)COc1cccc2c1CC(O)C(O)C2 (stereo not shown)	×10⁻⁶ cm/s	0.71

----------
Experiment: in vivo
Conditions: Sprague-Dawley, rat, pH 6.8, Effective permeability coefficient (Peff), rat jejunum, PEG 400 0.30 mg/ml (first run); mean ± SEM, n = 4

COMPOUND	Papp at 90 min [×10⁻⁶ cm/s]
Cc1cc(=O)n(-c2ccccc2)n1C [Antipyrine, antipyrine]	82

----------
Assay: Recirculating in situ rat intestinal perfusion (jejunum) in presence and absence of excipients
Conditions: Sprague-Dawley, other: closed-loop recirculating in situ jejunal perfusion, pH 6.8, Effective permeability coefficient (Peff), PEG 400 […], mean ± SEM, n = 4
REPORTED_PROPERTY: Papp at 90 min (nm/s)

MOLECULE	UNIT_SYMBOL	MEAS_VALUE
CC(C)(C)NCC(O)COc1cccc2c1CC(O)C(O)C2 (stereo not shown) [Nadolol, nadolol]	nm/s	250

----------
Assay: in vivo
Details: Sprague-Dawley, rat, pH 6.8, Effective permeability coefficient (Peff), rat jejunum, HPMC 0.06 mg/ml; mean ± SEM, n = 4

COMPOUND	UNIT_SYMBOL	Papp at 90 min
Cc1cc(=O)n(-c2ccccc2)n1C [Antipyrine, antipyrine]	×10⁻⁶ cm/s	168

----------
Assay: Recirculating in situ rat intestinal perfusion (jejunum) in presence and absence of excipients
Conditions: Sprague-Dawley, other: closed-loop recirculating in situ jejunal perfusion, pH 6.8, Effective permeability coefficient (Peff), HPMC […], mean ± SEM, n = 4
REPORTED_PROPERTY: Papp at 90 min (×10⁻⁶ cm/s)

COMPOUND	UNIT_SYMBOL	MEAS_VALUE
CC(C)(C)NCC(O)COc1cccc2c1CC(O)C(O)C2 (stereo not shown)	×10⁻⁶ cm/s	7

----------
Experiment: Unidirectional (A→B) permeability across Caco-2 cell monolayers in presence and absence of excipients
Conditions: human, Caco-2, Apparent permeability coefficient (Papp), SLS 0.04 mg/ml (control set a), mean ± SEM, n = 4
REPORTED_PROPERTY: Papp A→B (×10⁻⁶ cm/s)

COMPOUND	UNIT_SYMBOL	MEAS_VALUE
CC(C)(C)NCC(O)COc1cccc2c1CC(O)C(O)C2 (stereo not shown) [Nadolol, nadolol]	×10⁻⁶ cm/s	0.31

----------
Experiment: Unidirectional (A→B) permeability across Caco-2 cell monolayers in presence and absence of excipients
Conditions: human, Caco-2, Apparent permeability coefficient (Papp), HPMC 1.0 mg/ml (control set b), mean ± SEM, n = 4

COMPOUND	Papp A→B (×10⁻⁶ cm/s)
CC(C)(C)NCC(O)COc1cccc2c1CC(O)C(O)C2 (stereo not shown) [Nadolol, nadolol]	0.13

----------
Experiment: Recirculating in situ rat intestinal perfusion (jejunum) in presence and absence of excipients
Conditions: Sprague-Dawley, other: closed-loop recirculating in situ jejunal perfusion, pH 6.8, Effective permeability coefficient (Peff), HPMC 0.06 mg/ml, mean ± SEM, n = 4

MOLECULE	UNIT_SYMBOL	Papp at 90 min
CC(C)(C)NCC(O)COc1cccc2c1CC(O)C(O)C2 (stereo not shown)	×10⁻⁶ cm/s	40

----------
Experiment: in vivo
Conditions: Sprague-Dawley, rat, pH 6.8, Effective permeability coefficient (Peff), rat jejunum, SLS 0.01 mg/ml; mean ± SEM, n = 4

COMPOUND	Papp at 90 min, ×10⁻⁶ cm/s
Cc1cc(=O)n(-c2ccccc2)n1C [Antipyrine, antipyrine]	175

----------
Experiment: in vivo
Settings: Sprague-Dawley, rat, pH 6.8, Effective permeability coefficient (Peff), rat jejunum, Povidone 0.06 mg/ml; mean ± SEM, n = 4

COMPOUND	Papp at 90 min [×10⁻⁶ cm/s]
Cc1cc(=O)n(-c2ccccc2)n1C [Antipyrine, antipyrine]	133

----------
Assay: Unidirectional (A→B) permeability across Caco-2 cell monolayers in presence and absence of excipients
Conditions: human, Caco-2, Apparent permeability coefficient (Papp), PEG 400 0.06 mg/ml (control set a), mean ± SEM, n = 4

COMPOUND	Papp A→B (×10⁻⁶ cm/s)
CC(C)(C)NCC(O)COc1cccc2c1CC(O)C(O)C2 (stereo not shown) [Nadolol, nadolol]	0.13

----------
Experiment: Recirculating in situ rat intestinal perfusion (jejunum) in presence and absence of excipients
Conditions: Sprague-Dawley, other: closed-loop recirculating in situ jejunal perfusion, pH 6.8, Effective permeability coefficient (Peff), SLS 0.02 mg/ml, mean ± SEM, n = 4
REPORTED_PROPERTY: Papp at 90 min

MOLECULE	REPORTED_PROPERTY	MEAS_VALUE
CC(C)(C)NCC(O)COc1cccc2c1CC(O)C(O)C2 (stereo not shown)	Papp at 90 min	37 ×10⁻⁶ cm/s

----------
Experiment: Unidirectional (A→B) permeability across Caco-2 cell monolayers in presence and absence of excipients
Conditions: human, Caco-2, Apparent permeability coefficient (Papp), Povidone 0.2 mg/ml (control set b), mean ± SEM, n = 4
REPORTED_PROPERTY: Papp A→B (×10⁻⁶ cm/s)

COMPOUND	REPORTED_PROPERTY	UNIT_SYMBOL	MEAS_VALUE
CC(C)(C)NCC(O)COc1cccc2c1CC(O)C(O)C2 (stereo not shown)	Papp A→B	×10⁻⁶ cm/s	0.15

----------
Test: Unidirectional (A→B) permeability across Caco-2 cell monolayers in presence and absence of excipients
Settings: human, Caco-2, Apparent permeability coefficient (Papp), HPMC 0.06 mg/ml (control set a), mean ± SEM, n = 4

MOLECULE	Papp A→B / ×10⁻⁶ cm/s
CC(C)(C)NCC(O)COc1cccc2c1CC(O)C(O)C2 (stereo not shown) [Nadolol, nadolol]	0.14

----------
Experiment: in vivo
Details: Sprague-Dawley, rat, pH 6.8, Effective permeability coefficient (Peff), rat jejunum, Control (no excipient); mean ± SEM, n = 4
REPORTED_PROPERTY: Papp at 90 min (nm/s)

MOLECULE	MEAS_VALUE
Cc1cc(=O)n(-c2ccccc2)n1C [Antipyrine, antipyrine]	1430

----------
Assay: in vivo
Settings: Sprague-Dawley, rat, pH 6.8, Effective permeability coefficient (Peff), rat jejunum, PEG 400 […]; mean ± SEM, n = 4
REPORTED_PROPERTY: Papp at 90 min (×10⁻⁶ cm/s)

MOLECULE	UNIT_SYMBOL	MEAS_VALUE
Cc1cc(=O)n(-c2ccccc2)n1C [Antipyrine, antipyrine]	×10⁻⁶ cm/s	90

----------
Assay: Bidirectional permeability across Caco-2 cell monolayers (no excipients)
Settings: human, Caco-2, A→B Recovery, Caco-2, no excipients, cassette; mean ± SD, n = 3
REPORTED_PROPERTY: recovery (%)

COMPOUND	UNIT_SYMBOL	MEAS_VALUE
CC(C)(C)NCC(O)COc1cccc2c1CC(O)C(O)C2 (centres unmarked)	%	83.9
Nc1nc2c(ncn2COCCO)c(=O)[nH]1	%	82.2

----------
Test: in vivo
Settings: Sprague-Dawley, rat, pH 6.8, Effective permeability coefficient (Peff), rat jejunum, SLS 0.02 mg/ml; mean ± SEM, n = 4

COMPOUND	Papp at 90 min / ×10⁻⁶ cm/s
Cc1cc(=O)n(-c2ccccc2)n1C [Antipyrine, antipyrine]	93

Each recorded value in this set is attributed to paper PMC4689772.
